- MEASURED ON: human factor Xa (Homo sapiens, UniProt P00742)
- Sequence (P00742 235-488 limits assumed): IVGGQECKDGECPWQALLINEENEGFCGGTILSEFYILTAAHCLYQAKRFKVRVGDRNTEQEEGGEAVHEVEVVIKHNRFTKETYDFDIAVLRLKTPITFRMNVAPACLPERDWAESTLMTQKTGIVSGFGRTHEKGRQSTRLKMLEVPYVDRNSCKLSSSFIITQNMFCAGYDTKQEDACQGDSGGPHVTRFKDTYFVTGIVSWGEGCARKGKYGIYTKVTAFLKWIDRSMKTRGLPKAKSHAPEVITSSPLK
- Sequence (P00742 41-179 partner limits assumed): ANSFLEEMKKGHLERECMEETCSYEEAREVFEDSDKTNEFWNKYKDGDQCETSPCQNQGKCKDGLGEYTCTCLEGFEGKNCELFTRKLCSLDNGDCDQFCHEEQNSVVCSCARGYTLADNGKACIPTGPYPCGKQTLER
- METHOD SUMMARY: Factor Xa assay (chromogenic, substrate S-2765);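 also: purified enzyme preincubated with inhibitor for 10 min before substrate addition, final reaction volume 100 µl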
- Type: biochemical
- ASSAY CONDITIONS: read-out: Ki(FXa)
Entries and their pKi values follow.
API: returns pKi as number; meaning -log10 of concentration in mol/L.

Sample answers from the record:
SMI | pKi
CC(C)N1CCC(NC(=O)c2cc3c(Cl)c(N)ccc3n2Cc2cc(-c3ccc(Cl)s3)on2)CC1 | 7.96
COc1cccc(Cn2c(C(=O)NC3CCN(C(C)C)CC3)cc3cc(OCc4ccccc4)ccc32)c1 | 6.94
CC(C)N1CCC(NC(=O)c2cc3cc(C(=O)O)ccc3n2Cc2cc(-c3ccc(Cl)s3)on2)CC1 | 8.00

### Prompt What does the record list as pKi for CC(C)N1CCC(NC(=O)c2cc3c(C(F)(F)F)cccc3n2Cc2cc(-c3ccc(Cl)s3)on2)CC1 ?
### Response 7.82

These measurements were taken from patent US20090069565A1.
